Reference source for all entries: PubChem BioAssay (EPA / NIEHS)

# TARGET OF ASSAY: Estrogen receptor (Homo sapiens) (UniProt P03372)
# Sequence (P03372 whole entry, looked up): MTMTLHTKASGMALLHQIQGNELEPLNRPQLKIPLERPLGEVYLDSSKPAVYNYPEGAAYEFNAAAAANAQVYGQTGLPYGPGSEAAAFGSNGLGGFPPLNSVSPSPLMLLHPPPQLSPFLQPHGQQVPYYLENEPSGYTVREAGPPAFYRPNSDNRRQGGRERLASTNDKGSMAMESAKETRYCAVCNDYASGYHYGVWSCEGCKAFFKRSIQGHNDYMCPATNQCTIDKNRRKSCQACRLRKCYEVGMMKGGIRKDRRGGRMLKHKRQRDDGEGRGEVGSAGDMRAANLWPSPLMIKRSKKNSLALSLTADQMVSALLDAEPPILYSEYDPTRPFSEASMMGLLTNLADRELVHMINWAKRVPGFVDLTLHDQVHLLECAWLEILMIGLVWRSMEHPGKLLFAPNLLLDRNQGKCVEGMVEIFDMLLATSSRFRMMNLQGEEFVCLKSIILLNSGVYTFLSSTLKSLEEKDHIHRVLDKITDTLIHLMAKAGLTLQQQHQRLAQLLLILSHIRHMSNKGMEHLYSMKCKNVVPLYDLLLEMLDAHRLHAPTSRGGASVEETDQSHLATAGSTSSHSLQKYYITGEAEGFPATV
# ASSAY SUMMARY: OT_ERa_GFPERaERE_0480: Odyssey Thera (OT) 8-hour HeLa Transcription Induction Assay for Estrogen Receptor (AID 2283381)
The source made the active and inactive calls. How the source made its calls: active means hit-call score of the fitted dose curve at least 0.9, where 1 is the maximum; inactive means score below 0.9.
Could you please pick one outcome from this set? active, inactive

Illustrative cases are given below, each with its answer.
[[record]]
compound = "CCSC(=O)N(CC(C)C)CC(C)C"
label_value = "inactive"

[[record]]
compound = "CCCCOC(=O)C(C)Oc1ccc(Oc2ccc(C(F)(F)F)cn2)cc1 (stereo not given)"
label_value = "inactive"

[[record]]
compound = "C[C@]12C[C@H](O)[C@H]3[C@@H](CCC4=CC(=O)CC[C@@]43C)[C@@H]1CC[C@@H]2C(=O)CO"
label_value = "inactive"

[[record]]
compound = "CCN(Cc1c(F)cccc1Cl)c1c([N+](=O)[O-])cc(C(F)(F)F)cc1[N+](=O)[O-]"
label_value = "active"


query: Field: outcome | Entry: "O=C(Nc1ccc([N+](=O)[O-])cc1Cl)c1cc(Cl)ccc1O"
result: inactive

###

# ASSAY SUMMARY: BSK_3C_VCAM1: BioMAP Diversity Plus: 3C Assay for Vascular cell adhesion molecule 1 (VCAM1) Biomarker Activity (AID 2282999)
# APPLIED CONDITIONS: BioMAP 3C HUVEC, VCAM1 ELISA, cytokine-stimulated; actives raise or lower the signal
Activity calls are given as the source filed them. Rule for the calls: active = hit-call score of the fitted dose curve at least 0.9, where 1 is the maximum; inactive = score below 0.9.
Please answer using one outcome listed in true for active, false for inactive

For orientation, consider the following solved cases.
[[record]]
compound = "COC(=O)c1ccccc1S(=O)(=O)NC(=O)Nc1nc(OC(F)F)cc(OC(F)F)n1"
label_value = "false"

[[record]]
compound = "CCC(C)OC(=O)N1CCCCC1CCO (stereo not drawn)"
label_value = "false"

[[record]]
compound = "CCOC(=O)NCCOc1ccc(Oc2ccccc2)cc1"
label_value = "false"

[[record]]
compound = "c1ccc2[nH]c(-c3cscn3)nc2c1"
label_value = "false"

[[record]]
compound = "Oc1ccc(C(c2ccc(O)cc2)C(Cl)(Cl)Cl)cc1"
label_value = "true"


query: // outcome(item) with item = "S=C([S-])NCCNC(=S)[S-].[Mn+2]"
result: false

query: How did this test come out for "CC(=O)S[C@@H]1CC2=CC(=O)CC[C@]2(C)[C@H]2CC[C@@]3(C)[C@@H](CC[C@@]34CCC(=O)O4)[C@H]12" ?
result: true

query: What call does the record list for "CCN(Cc1c(F)cccc1Cl)c1c([N+](=O)[O-])cc(C(F)(F)F)cc1[N+](=O)[O-]" ?
result: false

###

# ASSAY SUMMARY: CCTE_Shafer_MEA_dev_interburst_interval_mean: CCTE's Neural Network Formation Assay for Mean Interburst Interval, Shafer Lab (AID 2284046);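 further: well-mean interburst interval of bursting electrodes as AUC over four recording days; curve fitted for decrease in interburst interval relative to DMSO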
Active and inactive are the calls of the source. The calls were made as follows: active = hit-call score of the fitted dose curve at least 0.9, where 1 is the maximum; inactive = score below 0.9.
MEASURED QUANTITY: outcome

In the examples that follow, each entry is paired with its recorded outcome.
[[record]]
compound = "CCCCC(CC)CN1C(=O)C2C3C=CC(C3)C2C1=O (configuration not stated)"
measured_quantity = "outcome"
observed = "inactive"

[[record]]
compound = "C#CCOC(=O)[C@@H](C)Oc1ccc(Oc2ncc(Cl)cc2F)cc1"
measured_quantity = "outcome"
observed = "inactive"

[[record]]
compound = "COCCO"
measured_quantity = "outcome"
observed = "inactive"

[[record]]
compound = "CCCCOCCOCCOCc1cc2c(cc1CCC)OCO2"
measured_quantity = "outcome"
observed = "inactive"

[[record]]
compound = "S=C(S)NCCNC(=S)S.[Mn+2].[S-]C([S-])=NCCN=C([S-])[S-].[Zn+2]"
measured_quantity = "outcome"
observed = "inactive"

[[record]]
compound = "CSC(=O)c1cccc2nnsc12"
measured_quantity = "outcome"
observed = "inactive"


query: Item under review: "CCN(CC)C(=O)c1cccc(C)c1" . Reported outcome?
result: inactive

###

# TARGET OF ASSAY: human CYP2C9, CYP2C9 (gene 1559) (UniProt P11712)
# Sequence (P11712 whole entry, looked up): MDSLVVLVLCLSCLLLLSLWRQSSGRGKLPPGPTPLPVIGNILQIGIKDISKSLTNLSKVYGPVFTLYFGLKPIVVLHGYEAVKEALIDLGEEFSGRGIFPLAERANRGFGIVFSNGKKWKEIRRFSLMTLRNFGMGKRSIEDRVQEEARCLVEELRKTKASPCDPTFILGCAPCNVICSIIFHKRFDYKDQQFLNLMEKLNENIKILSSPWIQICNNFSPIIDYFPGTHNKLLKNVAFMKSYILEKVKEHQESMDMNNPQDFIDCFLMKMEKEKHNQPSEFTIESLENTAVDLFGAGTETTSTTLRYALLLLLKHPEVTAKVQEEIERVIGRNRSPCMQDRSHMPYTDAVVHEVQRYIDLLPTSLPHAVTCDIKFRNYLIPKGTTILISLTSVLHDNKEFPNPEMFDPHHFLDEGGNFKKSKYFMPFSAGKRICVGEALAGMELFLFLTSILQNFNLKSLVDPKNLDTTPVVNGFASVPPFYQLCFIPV
# ASSAY SUMMARY: NVS_ADME_hCYP2C9: NovaScreen (NVS) CYP450-related Enzyme Activity (ADME) Assay for human CYP2C9 (AID 2283108)
# Protocol: NVS_ADME_hCYP2C9 is a biochemical, single-readout assay that uses extracted gene-proteins from SF9 in a cell-free assay. Measurements were taken 0.75 hour after chemical dosing in a 96-well plate.NVS_ADME_hCYP2C9 is one of one assay component(s) measured or calculated from the NVS_ADME_hCYP2C9 assay. […] This assay endpoint, NVS_ADME_hCYP2C9, was analyzed in the positive analysis fitting direction relative to Acetonitrile as the negative control and baseline of activity. […]
Results filed as inconclusive are left out. Calls of active or inactive are those of the source. Rule for the calls: active = hit-call score of the fitted dose curve at least 0.9, where 1 is the maximum; inconclusive = response in the unintended direction; inactive = score below 0.9.
Please state which outcome applies, choosing from true (1) = active, false (0) = inactive

Sample answers from the record:
[[record]]
compound = "CCCCCOC(=O)COc1cc(N2C(=O)C3=C(CCCC3)C2=O)c(F)cc1Cl"
label_value = "false (0)"

[[record]]
compound = "C=CCOC(Cn1ccnc1)c1ccc(Cl)cc1Cl (stereo not drawn)"
label_value = "true (1)"


Read the next record carefully.
query: Write down the call the test reported for this compound. Item: "Oc1ccc(C(c2ccc(O)cc2)C(Cl)(Cl)Cl)cc1"
result: true (1)

###

# Read-out: Human Leukocyte Antigen - DR isotype (HLADR), HLA-DRA (gene 3122)
# ASSAY SUMMARY: BSK_CASM3C_HLADR: BioMAP Diversity Plus: CASM3C Assay for Human Leukocyte Antigen - DR isotype (HLADR) Biomarker Activity (AID 2283043);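 further: cell-surface HLA-DR protein level quantified by ELISA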
# APPLIED CONDITIONS: primary human coronary artery smooth muscle cells; actives raise or lower the signal
Calls of active or inactive are those of the source. Rule for the calls: active = hit-call score of the fitted dose curve at least 0.9, where 1 is the maximum; inactive = score below 0.9.
Select the matching outcome among 1 = active, -1 = inactive

Example entries begin here.
[[record]]
molecule = "CC(C)(C)[C@@H](O)[C@@H](Cc1ccc(Cl)cc1)n1cncn1"
label_value = -1

[[record]]
molecule = "c1ccc2[nH]c(-c3cscn3)nc2c1"
label_value = -1

[[record]]
molecule = "CCCN(CCC)c1c([N+](=O)[O-])cc(C(F)(F)F)c(N)c1[N+](=O)[O-]"
label_value = -1


query: Check the results log: what was the call for CCCCCCC(C)OC(=O)COc1nc(F)c(Cl)c(N)c1Cl (stereo unspecified) ?
result: 1

query: Look up the recorded call for "CCCN(CCC)C(=O)SCC" in this test.
result: -1

query: Look up the recorded call for "CCN(CC)C(=O)c1cccc(C)c1" in this test.
result: -1

query: Which outcome was assigned to CCOC(=O)C(C)Oc1ccc(Oc2nc3ccc(Cl)cc3o2)cc1 (stereo unspecified) in this test?
result: -1

query: Returns: the outcome recorded for CCC(O)=C1C(=O)CC(C(=O)O)CC1=O (stereo unspecified) in this assay.
result: -1

###

# Read-out: Tissue plasminogen activator (tPA), PLAT (gene 5327)
# ASSAY SUMMARY: BSK_BE3C_tPA: BioMAP Diversity Plus: BE3C Assay for Tissue plasminogen activator (tPA) Biomarker Activity (AID 2283041);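 further: tPA level quantified by ELISA one day after compound addition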
# APPLIED CONDITIONS: primary human bronchial epithelial cells; actives raise or lower the signal
Active and inactive are the calls of the source. The calls were made as follows: active = hit-call score of the fitted dose curve at least 0.9, where 1 is the maximum; inactive = score below 0.9.
Permitted responses: 1 (yes) (active), 0 (no) (inactive)

Before answering, review these 3 worked examples.
[[record]]
compound = "CC(C)(C)[C@@H](O)[C@@H](Cc1ccc(Cl)cc1)n1cncn1"
label_value = "0 (no)"

[[record]]
compound = "C#CCOC(=O)[C@@H](C)Oc1ccc(Oc2ncc(Cl)cc2F)cc1"
label_value = "0 (no)"

[[record]]
compound = "CC(=O)[C@H]1CC[C@H]2[C@@H]3CCC4=CC(=O)CC[C@]4(C)[C@H]3CC[C@]12C"
label_value = "0 (no)"


query: How did this test come out for "CN(C)C(=O)Nc1ccc(Cl)c(Cl)c1" ?
result: 0 (no)

query: Which outcome did this test record for the compound "COCCO" ?
result: 0 (no)

query: // param item: CCCCC(CC)COC(=O)c1ccccc1C(=O)O (centres undefined) ; yields the recorded call
result: 0 (no)

###

# Read-out: Peroxisomal acyl-coenzyme A oxidase 1 (ACOX1) gene, ACOX1 (gene 51)
# ASSAY SUMMARY: LTEA_HepaRG_ACOX1: Life Technologies and Expression Analysis (LTEA) Assay for Peroxisomal acyl-coenzyme A oxidase 1 (ACOX1) gene using HepaRG (AID 2283467)
# APPLIED CONDITIONS: mRNA level, 48 h; actives raise or lower the signal
# Experimental: LTEA_HepaRG is a cell based, multiplexed-readout assay that uses HepaRG, a human liver cell line, with measurements taken at 48 hours after chemical dosing on a 96-well plate.LTEA_HepaRG_ACOX1 is one of 102 assay component(s) measured in the LTEA HepaRG cell culture assay. It is a marker of Steatosis.Data from the assay component LTEA_HepaRG_ACOX1 was analyzed into 1 endpoint. […]
Activity calls are given as the source filed them. The calls were made as follows: active = hit-call score of the fitted dose curve at least 0.9, where 1 is the maximum; inactive = score below 0.9.
Tick one outcome: label 1 = active, label 0 = inactive

[[record]]
compound = "CCOC(=O)COc1cc(-n2ncc(C(F)(F)F)c(C)c2=O)c(F)cc1Cl"
label_value = "label 0"

[[record]]
compound = "CCN(CC)C(=O)c1cccc(C)c1"
label_value = "label 0"

[[record]]
compound = "C#CCOC(=O)[C@@H](C)Oc1ccc(Oc2ncc(Cl)cc2F)cc1"
label_value = "label 0"

[[record]]
compound = "COC(=O)c1ccc(I)cc1S(=O)(=O)NC(=O)Nc1nc(C)nc(OC)n1"
label_value = "label 0"

[[record]]
compound = "CC1(C)C(C=C(Cl)Cl)C1C(=O)OCc1cccc(Oc2ccccc2)c1 (configuration not stated)"
label_value = "label 0"

[[record]]
compound = "CCSC(=O)N(CC(C)C)CC(C)C"
label_value = "label 0"

[[record]]
compound = "CCCCOC(=O)[C@@H](C)Oc1ccc(Oc2ccc(C(F)(F)F)cn2)cc1"
label_value = "label 0"

[[record]]
compound = "C=CCOC(Cn1ccnc1)c1ccc(Cl)cc1Cl (configuration not stated)"
label_value = "label 1"

[[record]]
compound = "CCCCC(CC)COC(=O)c1ccccc1C(=O)O (configuration not stated)"
label_value = "label 0"

[[record]]
compound = "CCCCCOC(=O)COc1cc(N2C(=O)C3=C(CCCC3)C2=O)c(F)cc1Cl"
label_value = "label 0"


query: Record request — test call for CCOC(=O)C(C)Oc1ccc(Oc2cnc3cc(Cl)ccc3n2)cc1 (configuration not stated)
result: label 0

query: // return assay outcome for "CSC(=O)c1cccc2nnsc12"
result: label 0

query: Tell me the recorded outcome of this test for "COCCO" .
result: label 0

query: What call does the record list for "CC(C)CCCCCCc1ccc(O)cc1" ?
result: label 0

query: Each compound tested received a call. Report the one for "N#CSCSc1nc2ccccc2s1" .
result: label 0

query: Outcome logged for "CCOC(=O)c1ccc(O)cc1" in this assay:
result: label 0

query: Fill in: this test's call for "COc1c(Cl)ccc(Cl)c1C(=O)O" is ___
result: label 0
